molecular target: T1, lactate dehydrogenase (LDH); test: phage ELISA
T1 construct: Coated at 500 ng/well as non-specific target; also called LDH polypeptide
Parameter: LDH (OD). Scope: all listed entries.
Please respond with the number in OD and leave the unit unwritten.

Example entries and their recorded answers appear below.
SRPGWCSRGTAWGFPGCSSSAAAGAPVPYPDPLEPRP [DGI-2-20R-3-C4] = 1.1
YAMSSRECGIRNSGLILSMWAAAGAPVPYPDPLEPRP [DGI-2-20F-PP-C9] = 0.9
CYLSRLFRSGQGIGQFGHVEAAAGAPVPYPDPLEPRP [DGI-2-20F-PP-A82] = 1.1
RGSLLLTLPRLSGAVGTAYGAAAGAPVPYPDPLEPRP [DGI-2-20F-PP-B3] = 1.1
VGHLLSRCAHHSPGMGASPYGAAAGAPVPYPDPLEPRP [DGI-2-20F-PP-B11] = 1

Quick check: LDH (OD) of TPVAISIPAGVCSTSVCGRDAAAGAPVPYPDPLEPRP [DGI-2-20F-PP-C11] ? 0.9
